Can you tell me TGI for the items I'm about to list?
- Tested on: DMS 114 small cell lung
- Procedure Text: NCI tumour cell line growth inhibition, 48 h

Fill in the blank: the reported TGI of COc1ccc(C(=O)CC(=O)C(=O)Nc2ccc(C)c(C)c2)cc1 is ____.
> 58.5 µM

I'd like to know its TGI. The molecule in question is COC(=O)C1=C(CS(=O)c2ccc([N+](=O)[O-])cc2[N+](=O)[O-])ON(C)C1c1ccccc1 (stereo not drawn)
> 66.4 µM

So what's the measured TGI for this one? Cc1c(C(=O)/C=C/c2c(Cl)cccc2Cl)c(=O)n(-c2ccccc2)n1C
> 100 µM

Consider the molecule CCC1CC(C)=CCN1S(=O)(=O)c1ccc(C)cc1 (stereo not drawn) and give its measured TGI.
53.7 µM

Would you mind telling me what TGI value was observed for CCCCCNC(=O)c1c(O)[nH]c(=S)[nH]c1=O ?
> 100 µM

Report TGI for CCOC(=O)C(=O)Nc1c(C)cccc1C(C)C please.
> 100 µM

Which TGI value is on record for CC1=NC(C(C)C)C(=O)O1 (stereo not drawn) ?
56.2 µM

Which TGI is listed for Nc1cccc2c1C1=NNC(=O)CC1C2 (stereo not drawn) ?
> 100 µM

Which TGI is listed for c1ccc(CN2CCCCC(Sc3ccccc3)CC2)cc1 (stereo not drawn) ?
44.6 µM

Which TGI value is on record for COc1ccc(C(=O)C(C(=O)C(=O)NC2C3CC4CC(C3)CC2C4)c2ccc(OC)cc2)cc1 (stereo not drawn) ?
> 100 µM

Return reported TGI; argument: COC(=O)C1=C(c2ccc3c(c2)OCO3)OC(c2ccc3c(c2)OCO3)C1 (stereo not drawn)
> 100 µM

Dear colleague, I am looking for the recorded TGI of the following molecule: NCCCNCCSSC/C=C\CSSCCNCCCN
> 100 µM

Request the reported TGI associated with COC(=O)CS(=O)c1ccccc1 (stereo not drawn)
56.5 µM
